Task for the reader: assign each of the following molecules its reported pIC50.
Subject of test: Delta-type opioid receptor (Rattus norvegicus, UniProt P33533)
Sequence (P33533 whole entry): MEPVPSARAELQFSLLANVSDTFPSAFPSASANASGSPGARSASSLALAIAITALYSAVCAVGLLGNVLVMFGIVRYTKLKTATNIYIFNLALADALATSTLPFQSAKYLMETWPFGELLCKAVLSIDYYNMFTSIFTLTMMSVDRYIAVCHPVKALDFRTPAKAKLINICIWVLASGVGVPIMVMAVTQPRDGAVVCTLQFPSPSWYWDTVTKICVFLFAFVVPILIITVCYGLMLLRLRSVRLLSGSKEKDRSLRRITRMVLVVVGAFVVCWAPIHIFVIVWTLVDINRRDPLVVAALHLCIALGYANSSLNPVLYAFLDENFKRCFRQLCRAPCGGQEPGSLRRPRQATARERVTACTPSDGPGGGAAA
Test details: Displacement of [3H][Ile5,6]deltorphin-2 from delta opioid receptor in Wistar rat brain membranes after 120 mins by scintillation counting analysis
Value format note: pIC50 is -log10 of concentration (mol/L); just state the number.

// returns reported pIC50 for input "NC(=O)[C@@H]1CC(=O)NCCCC[C@@H](NC(=O)[C@@H](N)Cc2ccc(O)cc2)C(=O)N[C@@H](Cc2ccccc2)C(=O)N[C@@H](Cc2ccc(F)cc2F)C(=O)N1"
6.96

// returns reported pIC50 for input "NC(=O)[C@@H]1CC(=O)NCCCC[C@@H](NC(=O)[C@@H](N)Cc2ccc(O)cc2)C(=O)N[C@@H](Cc2ccccc2)C(=O)N[C@@H](Cc2ccc(F)cc2)C(=O)N1"
6.54

// returns reported pIC50 for input "NC(=O)[C@@H]1CC(=O)NCCCC[C@@H](NC(=O)[C@@H](N)Cc2ccc(O)cc2)C(=O)N[C@@H](Cc2ccc(F)cc2)C(=O)N[C@@H](Cc2ccccc2)C(=O)N1"
6.46

// returns reported pIC50 for input "Cc1cc(O)cc(C)c1C[C@H](N)C(=O)N[C@@H]1CCCCNC(=O)C[C@@H](C(N)=O)NC(=O)[C@H](Cc2ccc(F)cc2F)NC(=O)[C@H](Cc2ccccc2)NC1=O"
7.95

// returns reported pIC50 for input "NC(=O)[C@@H]1CC(=O)NCCCC[C@@H](NC(=O)[C@@H](N)Cc2ccc(O)cc2)C(=O)N[C@@H](Cc2ccccc2)C(=O)N[C@@H](Cc2ccc(C(F)(F)F)cc2)C(=O)N1"
6.37

// returns reported pIC50 for input "Cc1cc(O)cc(C)c1C[C@H](N)C(=O)N[C@@H]1CCCCNC(=O)C[C@@H](C(N)=O)NC(=O)[C@H](Cc2ccc(F)cc2)NC(=O)[C@H](Cc2ccccc2)NC1=O"
6.77

// returns reported pIC50 for input "Cc1cc(O)cc(C)c1C[C@H](N)C(=O)N[C@@H]1CCCCNC(=O)C[C@@H](C(N)=O)NC(=O)[C@H](Cc2ccccc2)NC(=O)[C@H](Cc2ccc(F)cc2F)NC1=O"
6.47

// returns reported pIC50 for input "Cc1cc(O)cc(C)c1C[C@H](N)C(=O)N[C@@H]1CCCCNC(=O)C[C@@H](C(N)=O)NC(=O)[C@H](Cc2ccccc2)NC(=O)[C@H](Cc2ccc(F)cc2)NC1=O"
6.55

---

Subject of test: Kappa-type opioid receptor (Cavia porcellus, UniProt P41144)
Sequence (P41144 whole entry): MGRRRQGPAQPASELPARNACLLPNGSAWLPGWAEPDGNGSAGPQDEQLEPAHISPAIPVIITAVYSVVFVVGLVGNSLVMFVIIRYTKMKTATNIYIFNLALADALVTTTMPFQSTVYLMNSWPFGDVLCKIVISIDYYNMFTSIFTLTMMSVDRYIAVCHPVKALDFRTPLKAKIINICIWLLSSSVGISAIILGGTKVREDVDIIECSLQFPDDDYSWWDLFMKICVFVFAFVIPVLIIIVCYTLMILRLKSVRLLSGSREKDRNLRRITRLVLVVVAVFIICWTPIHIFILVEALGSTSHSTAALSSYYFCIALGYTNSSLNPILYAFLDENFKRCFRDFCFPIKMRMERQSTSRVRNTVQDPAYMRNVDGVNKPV
Test details: Displacement of [3H]nor-BNI from kappa opioid receptor in guinea pig brain membranes after 120 mins by scintillation counting analysis
Where a SMILES comes first, the peptide text is derived from it. Bridges are numbered along the chain shown (N, C = ends). [ ]: non-standard residue; d: D form. Phe(4-CF3) = N[C@@H](Cc1ccc(C(F)(F)F)cc1)C(=O)O; Dmt = Cc1cc(O)cc(C)c1C[C@H](N)C(=O)O
Task for the reader: assign each of the following molecules its reported pIC50.
Value format note: pIC50 is -log10 of concentration (mol/L); just state the number.

// returns reported pIC50 for input "NC(=O)[C@@H]1CC(=O)NCCCC[C@@H](NC(=O)[C@@H](N)Cc2ccc(O)cc2)C(=O)N[C@@H](Cc2ccc(F)cc2F)C(=O)N[C@@H](Cc2ccccc2)C(=O)N1"
8.49

// returns reported pIC50 for input "Cc1cc(O)cc(C)c1C[C@H](N)C(=O)N[C@@H]1CCCCNC(=O)C[C@@H](C(N)=O)NC(=O)[C@H](Cc2ccccc2)NC(=O)[C@H](Cc2ccc(C(F)(F)F)cc2)NC1=O"
8.19

// returns reported pIC50 for input "NC(=O)[C@@H]1CC(=O)NCCCC[C@@H](NC(=O)[C@@H](N)Cc2ccc(O)cc2)C(=O)N[C@@H](Cc2ccccc2)C(=O)N[C@@H](Cc2ccc(F)cc2F)C(=O)N1"
9.05

// returns reported pIC50 for input "Cc1cc(O)cc(C)c1C[C@H](N)C(=O)N[C@@H]1CCCCNC(=O)C[C@@H](C(N)=O)NC(=O)[C@H](Cc2ccc(F)cc2F)NC(=O)[C@H](Cc2ccccc2)NC1=O"
9.52

// returns reported pIC50 for input "Cc1cc(O)cc(C)c1C[C@H](N)C(=O)N[C@@H]1CCCCNC(=O)C[C@@H](C(N)=O)NC(=O)[C@H](Cc2ccccc2)NC(=O)[C@H](Cc2ccc(F)cc2)NC1=O"
8.62

// returns reported pIC50 for input "NC(=O)[C@@H]1CC(=O)NCCCC[C@@H](NC(=O)[C@@H](N)Cc2ccc(O)cc2)C(=O)N[C@@H](Cc2ccccc2)C(=O)N[C@@H](Cc2ccc(C(F)(F)F)cc2)C(=O)N1"
8.82

// returns reported pIC50 for input Cc1cc(O)cc(C)c1C[C@H](N)C(=O)N[C@@H]1CCCCNC(=O)C[C@@H](C(N)=O)NC(=O)[C@H](Cc2ccc(C(F)(F)F)cc2)NC(=O)[C@H](Cc2ccccc2)NC1=O (H-[Dmt][dK]F[Phe(4-CF3)]D-NH2; lactam 2-5)
8.94

// returns reported pIC50 for input "NC(=O)[C@@H]1CC(=O)NCCCC[C@@H](NC(=O)[C@@H](N)Cc2ccc(O)cc2)C(=O)N[C@@H](Cc2ccc(F)cc2)C(=O)N[C@@H](Cc2ccccc2)C(=O)N1"
8.61

// returns reported pIC50 for input "Cc1cc(O)cc(C)c1C[C@H](N)C(=O)N[C@@H]1CCCCNC(=O)C[C@@H](C(N)=O)NC(=O)[C@H](Cc2ccc(F)cc2)NC(=O)[C@H](Cc2ccccc2)NC1=O"
9.26

// returns reported pIC50 for input "NC(=O)[C@@H]1CC(=O)NCCCC[C@@H](NC(=O)[C@@H](N)Cc2ccc(O)cc2)C(=O)N[C@@H](Cc2ccc(C(F)(F)F)cc2)C(=O)N[C@@H](Cc2ccccc2)C(=O)N1"
7.61

// returns reported pIC50 for input "Cc1cc(O)cc(C)c1C[C@H](N)C(=O)N[C@@H]1CCCCNC(=O)C[C@@H](C(N)=O)NC(=O)[C@H](Cc2ccccc2)NC(=O)[C@H](Cc2ccc(F)cc2F)NC1=O"
9.22

// returns reported pIC50 for input "NC(=O)[C@@H]1CC(=O)NCCCC[C@@H](NC(=O)[C@@H](N)Cc2ccc(O)cc2)C(=O)N[C@@H](Cc2ccccc2)C(=O)N[C@@H](Cc2ccc(F)cc2)C(=O)N1"
9.22
